- Assay summary: Cytotoxicity against human MT4 cells assessed as reduction in cell viability incubated for 3 days by XTT assay
- Type: cell-based
- Experimental setup: MT4 cells, time 3 day
Catalogue of CC50 at 72 h values

Solved cases below.
{"Record smiles": "COc1ccc(N(C)C(=O)[C@H](Cc2ccccc2)NS(=O)(=O)CC(=O)N2CCc3cc([N+](=O)[O-])ccc32)cc1", "CC50 at 72 h": "> 9.05 µM"}
{"Record smiles": "COc1ccc(N(C)C(=O)[C@H](Cc2ccccc2)NC(=O)c2cccc(S(=O)(=O)N3CCCCC3)c2)cc1", "CC50 at 72 h": "> 9.03 µM"}

What does the record list as CC50 at 72 h for COc1ccc(N(C)C(=O)[C@H](Cc2ccccc2)NS(=O)(=O)c2cccc(C(=O)N3CCc4ccncc43)c2)cc1 ?
> 8.76 µM
